target: recombinant human IL-17AA (Homo sapiens, UniProt Q16552); experiment: IL-6 release from NHDF cells, IL-17AA plus TNF-α stimulation; type: cell-based; settings: NHDF cells, IL-17AA 30 pM + TNF-α 6 pM, 24 hours, IL-6 by ELISA; read-out: IL17AA + TNF IC50 IL-6
Sequence (Q16552 24-155): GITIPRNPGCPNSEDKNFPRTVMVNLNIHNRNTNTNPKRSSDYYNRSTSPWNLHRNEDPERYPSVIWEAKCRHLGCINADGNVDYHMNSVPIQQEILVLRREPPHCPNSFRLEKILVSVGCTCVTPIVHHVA
reported endpoint: IC50 (µM)

Recorded IC50, per entry:
| compound | IC50, µM |
| --- | --- |
| CC(=O)N1CCn2c(ccc2C(=O)N[C@H](C(=O)Nc2ccc(-c3c(Cl)cc[n+]([O-])c3C)cc2F)C2CCCCC2)C1 | 0.011 |
| Cc1c(-c2ccc(NC(=O)[C@@H](NC(=O)c3ccc4n3CCNC4)C3CCCCC3)cc2)c(Cl)cc[n+]1[O-] | 0.063 |
| Cc1nocc1C(=O)N[C@H](C(=O)Nc1ccc(-c2cc(Cl)c[n+]([O-])c2C)c(F)c1)C1CCC(F)(F)CC1 | 0.531 |
| Cc1c(-c2ccc(NC(=O)C(NC(=O)c3ccnn3C)C3CCCC(F)C3)cc2)c(Cl)cc[n+]1[O-] (centres unmarked) | 0.0445 |
| Cc1cc[n+]([O-])c(C)c1-c1ccc(NC(=O)C(NC(=O)c2ccc3n2CCNC3)C2CC3CC3C2)cc1 (centres unmarked) [Example 204] | 0.095 |
| Cc1cc[n+]([O-])c(C)c1-c1ccc(NC(=O)C(NC(=O)c2ccnn2C(C)C)C2CCCC(F)(F)C2)cc1 (centres unmarked) | 0.0205 |

(a) CCn1nccc1C(=O)NC(C(=O)Nc1ccc(-c2c(Cl)cc[n+]([O-])c2C)cc1)C1CC2CC2C1 (single isomer, unassigned) [Example 209]
(b) Cc1cc[n+]([O-])c(C)c1-c1ccc(NC(=O)[C@@H](NC(=O)c2ccnn2C)[C@H]2CCC[C@H](F)CC2)cc1
(c) Cc1cc[n+]([O-])c(C)c1-c1ccc(NC(=O)C(NC(=O)c2ccnn2C)C2CCCCC(F)(F)C2)cc1 (centres unmarked)
*Q* With regard to IC50, arrange the entries in ascending order, please. # output: labels, in the requested order
*A* c, b, a
(c: 0.0515 µM, b: 0.121 µM, a: 0.175 µM)

(I) Cc1cc[n+]([O-])c(C)c1-c1ccc(NC(=O)[C@@H](NC(=O)c2ccnn2C)[C@H]2CCC[C@@H](F)CC2)cc1
(II) Cc1c(-c2ccc(NC(=O)C(NC(=O)c3ccnn3C)C3CC4CC4C3)cc2)c(Cl)cc[n+]1[O-] (centres unmarked)
*Q* Which numeric IC50 is bigger, that of I or that of II ? // return label of chosen record
*A* I
(I: 0.138 µM, II: 0.0195 µM)

====

Catalogue of compounds with associated pIC50
target: biotinylated human IL-17A / AF647-labeled human IL-17RA (Homo sapiens); assay: Human IL-17A×IL-17RA TR-FRET assay; type: binding; conditions: IL17AA FRET/ IL17Rawt IC50, TR-FRET, biotinylated human IL-17A 5 nM, AF647-labeled human IL-17RA 30 nM
// returns pIC50 (minus log10 of molar concentration), number only

Sample records with pIC50:
| compound | reported endpoint | result |
| --- | --- | --- |
| CCn1nccc1C(=O)NC(C(=O)Nc1ccc(-c2c(C(F)(F)F)cc[n+]([O-])c2C)cc1)C1CC2CC2C1 (single isomer, unassigned) | pIC50 | 7.13 |
| Cc1c(-c2ccc(NC(=O)[C@@H](NC(=O)c3ccnn3C)C3CCCCC3)cc2)c(Cl)cc[n+]1[O-] | pIC50 | 7.59 |

*Q* Any idea what its pIC50 is? The compound is Cc1c[n+]([O-])ccc1-c1ccc(NC(=O)[C@@H](NC(=O)c2ccnn2C)C2CCCCC2)cc1
*A* 5.32

====

target: biotinylated human IL-17A / AF647-labeled human IL-17RA (Homo sapiens, UniProt Q16552); assay: Human IL-17A×IL-17RA TR-FRET assay; assay type: binding; conditions: TR-FRET, biotinylated human IL-17A 5 nM, AF647-labeled human IL-17RA 30 nM; read-out: IL17AA FRET/ IL17Rawt IC50
reported endpoint: IC50 (nM)

Consider the worked cases shown below.
| compound | result |
| --- | --- |
| Cc1c[n+]([O-])cc(C)c1-c1ccc(NC(=O)[C@@H](NC(=O)c2ccnn2C)C2CCCCCC2)cc1 | 208 |
| Cc1nocc1C(=O)NC(C(=O)Nc1ccc(-c2c(Cl)cc[n+]([O-])c2C)c(F)c1)[C@H]1C[C@@H]2C[C@@H]2C1 (stereo partly shown) | 37 |

(P) CCc1nocc1C(=O)N[C@H](C(=O)Nc1ccc(-c2c(C)cc[n+]([O-])c2C)cc1)[C@H]1CCCC(F)(F)C1
(Q) Cc1c[n+]([O-])cc(C)c1-c1ccc(NC(=O)[C@@H](NC(=O)c2ccnn2C(C)C)C2CCCCCC2)cc1
(R) Cc1cc[n+]([O-])c(C)c1-c1ccc(NC(=O)[C@H](Cc2ccccc2F)NC(=O)c2conc2C)cc1
*Q* Falling order of IC50, please. // rank by listing labels in the order requested
*A* R, Q, P
(R: 454 nM, Q: 85 nM, P: 46 nM)

====

molecular target: biotinylated human IL-17A / AF647-labeled human IL-17RA (Homo sapiens, UniProt Q16552); assay: Human IL-17A×IL-17RA TR-FRET assay; format: binding; details: IL17AA FRET/ IL17Rawt IC50, TR-FRET, 5 nM IL-17A, 30 nM IL-17RA
pIC50: −log10 of the molar value.
reported endpoint: pIC50

Examples with answers:
| compound | target under test | pIC50 |
| --- | --- | --- |
| CCn1nccc1C(=O)N[C@H](C(=O)Nc1ccc(-c2cc(Cl)c[n+]([O-])c2C)cc1)C1CCC(F)(F)CC1 | biotinylated human IL-17A / AF647-labeled human IL-17RA (Homo sapiens, UniProt Q16552) | 6.40 |
| CCn1nccc1C(=O)NC(C(=O)Nc1ccc(-c2c(C(F)(F)F)cc[n+]([O-])c2C)cc1)C1CC2CC2C1 (single isomer, unassigned) | biotinylated human IL-17A / AF647-labeled human IL-17RA (Homo sapiens, UniProt Q16552) | 5.20 |
| Cc1c(-c2ccc(NC(=O)C(NC(=O)c3ccnn3C)[C@H]3C[C@@H]4C[C@@H]4C3)cc2F)c(Cl)cc[n+]1[O-] (stereo partly drawn) | biotinylated human IL-17A / AF647-labeled human IL-17RA (Homo sapiens, UniProt Q16552) | 7.54 |
| Cc1cc(-c2ccc(NC(=O)[C@@H](NC(=O)c3ccnn3C)C3CCC(F)(F)CC3)cc2)c(C)[n+]([O-])c1 | biotinylated human IL-17A / AF647-labeled human IL-17RA (Homo sapiens, UniProt Q16552) | 6.33 |

(I) Cc1cc[n+]([O-])cc1-c1ccc(NC(=O)[C@@H](NC(=O)c2ccnn2C)C2CCCCC2)cc1F
(II) Cc1cc[n+]([O-])c(C)c1-c1ccc(NC(=O)C(NC(=O)c2ccnn2C)C2CCCC(F)(F)C2)cc1 (stereo not drawn)
*Q* Smaller pIC50 value? Options are I and II # respond with the chosen item's label
*A* I
(I: 5.83, II: 6.29)

====

target: recombinant human IL-17AA (Homo sapiens); test: IL-6 release from NHDF cells, IL-17AA plus TNF-α stimulation; type: cell-based; conditions: NHDF cells, IL-17AA 30 pM plus TNF-α 6 pM, 24 hours, IL-6 by ELISA; read-out: IL17AA + TNF IC50 IL-6
pIC50: −log10 of the molar value.
reported endpoint: pIC50

| molecule | target under test | pIC50 |
| --- | --- | --- |
| Cc1nocc1C(=O)N[C@H](C(=O)Nc1ccc(-c2c(C(F)(F)F)cc[n+]([O-])c2C)cc1)C1CCCC1 | recombinant human IL-17AA (Homo sapiens) | 7.18 |

(A) CCc1nocc1C(=O)NC(C(=O)Nc1ccc(-c2c(Cl)cc[n+]([O-])c2C)cc1)C1CCC(F)(F)CC1 (stereo not shown)
(B) Cc1cc[n+]([O-])c(C)c1-c1ccc(NC(=O)[C@@H](NC(=O)c2ccnn2C2CC2)C2CCCCCC2)cc1
(C) Cc1c(-c2ccc(NC(=O)[C@@H](NC(=O)c3ccnn3C)C3CCCCC3)cc2F)c(C(F)(F)F)cc[n+]1[O-]
*Q* Ascending by pIC50, please. Labels, ranked as asked.
*A* A, B, C
(A: 7.21, B: 7.92, C: 8.40)

====

Molecular target: recombinant human IL-17AA (Homo sapiens)
Experiment: IL-6 release from NHDF cells, IL-17AA plus TNF-α stimulation
Assay type: cell-based
Conditions: NHDF cells, IL-17AA 30 pM + TNF-α 6 pM, 24 hours, IL-6 by ELISA; read-out: IL17AA + TNF IC50 IL-6
Method: IL-6 Release from NHDF Cells (Normal Human Dermal Fibroblasts) NHDF cells isolated from normal adult mesoderm, connective tissues were cultured in fibroblast growth medium containing 2% supplement. […] Diluted compounds were pre-incubated with recombinant human IL-17AA or IL-17AF plus human TNF-α for 30 minutes at room temperature on a shaker. […] The supernatants were collected to quantify IL-6 by ELISA according to the manufacturers instructions. […]
reported endpoint: IC50 (nM)

Example cases with answers are listed next.
| compound | result |
| --- | --- |
| Cc1c(-c2ccc(NC(=O)[C@@H](NC(=O)c3ccc4n3CCNC4)C3CCC(F)(F)CC3)cc2F)c(Cl)cc[n+]1[O-] [Example 179] | 60 |
| Cc1cc[n+]([O-])c(C)c1-c1ccc(NC(=O)[C@@H](NC(=O)c2cn[nH]c2C(C)C)C2CCCCC2)cc1 [Example 157] | 105 |
| Cc1cc[n+]([O-])c(C)c1-c1ccc(NC(=O)[C@H](Cc2ccccc2Cl)NC(=O)c2ccnn2C)cc1 [Example 180] | 372 |
| Cc1cc[n+]([O-])c(C)c1-c1ccc(NC(=O)C(NC(=O)c2ccc3n2CCN(C)C3)C2CC3CC3C2)cc1 (single isomer, unassigned) [Example 192] | 142 |

(A) Cc1cc[n+]([O-])c(C)c1-c1ccc(NC(=O)[C@@H](NC(=O)c2ccc3n2CCNC3)C2CCCCCC2)cc1 [Example 202]
(B) Cc1c(-c2ccc(NC(=O)[C@@H](NC(=O)c3ccnn3C)C3CCCCC3)cc2)c(C(C)C)cc[n+]1[O-] [Example 224]
*Q* Which is greater in IC50, the first item A or the second item B ? # reply format: chosen label
*A* B
(B: 108 nM, A: 73 nM)
